Source: patent US20090048295A1

Provide the recorded inhibition at 10 µM for the entries that follow.
molecular target: UniProt:P21730; assay: [125I]-C5a Radioligand Binding Assay (competition binding, differentiated U937 cells); conditions: read-out: [125I]-C5a Binding % Inhibition 10 μM, test compound 10 μM; [125I]-C5a 0.05 nM; U937 cells; multiple values = duplicate experiments
Kindly write the number and append the unit.

I have this compound here, CCN(c1cccc2ccccc12)C1CCCc2nc(-c3c(OC)cccc3OC)cc(OC)c21 (stereo not shown) , and I need its recorded inhibition at 10 µM.
83%

I have this compound here, CCc1cccc(CC)c1-c1cc(OC)c2c(n1)CCCC2N1CCc2cc(C(F)(F)F)ccc2C1 (stereo not shown) , and I need its recorded inhibition at 10 µM.
80%

I have this compound here, CCc1cccc(CC)c1-c1cc(OC)c2c(n1)CCCC2Nc1cc(C(F)(F)F)ccc1C (stereo not shown) , and I need its recorded inhibition at 10 µM.
92%

I have this compound here, CCN(c1cccc2ccccc12)C1CCCc2nc(-c3c(C)cc(OC)cc3C)cc(OC)c21 (stereo not shown) , and I need its recorded inhibition at 10 µM.
93%

I have this compound here, CCN(c1cccc2ccccc12)C1CCCc2nc(-c3ccccc3F)cc(OC)c21 (stereo not shown) , and I need its recorded inhibition at 10 µM.
80%

I have this compound here, CCc1cccc(CC)c1-c1cc(OC)c2c(n1)CCCC2N1CCc2cccc(C(F)(F)F)c2C1 (stereo not shown) , and I need its recorded inhibition at 10 µM.
94%

I have this compound here, COc1cc(-c2c(C)cccc2C)nc2c1C(N(C)c1ccc(Cl)c3ccccc13)CCC2 (stereo not shown) , and I need its recorded inhibition at 10 µM.
91%

I have this compound here, CCOc1cc(-c2c(CC)cccc2CC)nc2c1C(N(CC)c1cccc3ccccc13)CCC2 (racemic) , and I need its recorded inhibition at 10 µM.
96%

I have this compound here, CCc1cccc(CC)c1-c1cc(OC)c2c(n1)CCCC2N1CCc2ccc(C(F)(F)F)cc2C1 (stereo not shown) , and I need its recorded inhibition at 10 µM.
79%

I have this compound here, "CCc1cccc(CC)c1-c1cc(OC)c2c(n1)CCC[C@H]2N(C)[C@H]1CCCc2ccccc21" , and I need its recorded inhibition at 10 µM.
83%

* * *

target: C5a receptor (Homo sapiens); test: [125I]-C5a Radioligand Binding Assay (competition binding, differentiated U937 cells); conditions: test compound 1 μM; [125I]-C5a 0.05 nM; U937 cells; multiple values = duplicate experiments;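 note: cells preincubated with compound 30 min at room temperature, then 60 min at 4 °C with radioligand, bound counts read by scintillation, nonspecific binding defined with 100 nM C5a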
Sequence (P21730 whole entry): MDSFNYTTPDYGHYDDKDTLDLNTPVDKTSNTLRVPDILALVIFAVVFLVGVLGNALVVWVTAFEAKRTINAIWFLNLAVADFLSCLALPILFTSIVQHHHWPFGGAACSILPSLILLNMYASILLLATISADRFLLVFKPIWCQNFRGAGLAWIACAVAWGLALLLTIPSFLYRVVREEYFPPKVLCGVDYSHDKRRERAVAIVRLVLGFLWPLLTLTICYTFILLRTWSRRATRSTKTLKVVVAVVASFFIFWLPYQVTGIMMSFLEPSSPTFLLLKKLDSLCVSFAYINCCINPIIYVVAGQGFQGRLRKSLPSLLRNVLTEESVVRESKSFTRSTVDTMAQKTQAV
assay_readout: [125I]-C5a Binding % Inhibition 1 μM (%)
The answer is to be given in %; state only the numeric part.

State its [125I]-C5a Binding % Inhibition 1 μM on C5a receptor (Homo sapiens): CCc1ccccc1-c1cc(OC)c2c(n1)CCCC2N(CC)c1cccc2ccccc12 (racemic)
90

State its [125I]-C5a Binding % Inhibition 1 μM on C5a receptor (Homo sapiens): CCc1cccc(CC)c1-c1cc(OC)c2c([n+]1[O-])CCCC2N(CC)c1cccc2ccccc12 (racemic)
82

State its [125I]-C5a Binding % Inhibition 1 μM on C5a receptor (Homo sapiens): CCc1cccc(CC)c1-c1cc(OC)c2c(n1)CCCC2Nc1cc(OC)ccc1C (centres unmarked)
96

State its [125I]-C5a Binding % Inhibition 1 μM on C5a receptor (Homo sapiens): CCc1cccc(CC)c1-c1cc(OC)c2c(n1)CCCC2N(C)Cc1cccc2ccccc12 (centres unmarked)
71

State its [125I]-C5a Binding % Inhibition 1 μM on C5a receptor (Homo sapiens): CCc1cccc(CC)c1-c1cc(OC)c2c(n1)CCCC2Nc1cccc2ccccc12 (centres unmarked) [Compound 103]
48

State its [125I]-C5a Binding % Inhibition 1 μM on C5a receptor (Homo sapiens): CCc1cccc(CC)c1-c1cc(OC)c2c(n1)CCCC2N(C)CCc1ccccc1 (centres unmarked)
17

State its [125I]-C5a Binding % Inhibition 1 μM on C5a receptor (Homo sapiens): CCc1cccc(CC)c1-c1cc(OC)c2c(n1)CCCC2N(CC)Cc1ccccc1 (centres unmarked)
49

State its [125I]-C5a Binding % Inhibition 1 μM on C5a receptor (Homo sapiens): CCc1cccc(CC)c1-c1cc(OC)c2c(n1)CCCC2N1CCc2cccc(C(F)(F)F)c2C1 (centres unmarked)
96
